# TEST_SYSTEM: human PI3Kα protein (Homo sapiens)
# Construct: purchased Carna Biosciences, Inc; host or cells: baculovirus expression system
# Sequence (P42336 whole entry): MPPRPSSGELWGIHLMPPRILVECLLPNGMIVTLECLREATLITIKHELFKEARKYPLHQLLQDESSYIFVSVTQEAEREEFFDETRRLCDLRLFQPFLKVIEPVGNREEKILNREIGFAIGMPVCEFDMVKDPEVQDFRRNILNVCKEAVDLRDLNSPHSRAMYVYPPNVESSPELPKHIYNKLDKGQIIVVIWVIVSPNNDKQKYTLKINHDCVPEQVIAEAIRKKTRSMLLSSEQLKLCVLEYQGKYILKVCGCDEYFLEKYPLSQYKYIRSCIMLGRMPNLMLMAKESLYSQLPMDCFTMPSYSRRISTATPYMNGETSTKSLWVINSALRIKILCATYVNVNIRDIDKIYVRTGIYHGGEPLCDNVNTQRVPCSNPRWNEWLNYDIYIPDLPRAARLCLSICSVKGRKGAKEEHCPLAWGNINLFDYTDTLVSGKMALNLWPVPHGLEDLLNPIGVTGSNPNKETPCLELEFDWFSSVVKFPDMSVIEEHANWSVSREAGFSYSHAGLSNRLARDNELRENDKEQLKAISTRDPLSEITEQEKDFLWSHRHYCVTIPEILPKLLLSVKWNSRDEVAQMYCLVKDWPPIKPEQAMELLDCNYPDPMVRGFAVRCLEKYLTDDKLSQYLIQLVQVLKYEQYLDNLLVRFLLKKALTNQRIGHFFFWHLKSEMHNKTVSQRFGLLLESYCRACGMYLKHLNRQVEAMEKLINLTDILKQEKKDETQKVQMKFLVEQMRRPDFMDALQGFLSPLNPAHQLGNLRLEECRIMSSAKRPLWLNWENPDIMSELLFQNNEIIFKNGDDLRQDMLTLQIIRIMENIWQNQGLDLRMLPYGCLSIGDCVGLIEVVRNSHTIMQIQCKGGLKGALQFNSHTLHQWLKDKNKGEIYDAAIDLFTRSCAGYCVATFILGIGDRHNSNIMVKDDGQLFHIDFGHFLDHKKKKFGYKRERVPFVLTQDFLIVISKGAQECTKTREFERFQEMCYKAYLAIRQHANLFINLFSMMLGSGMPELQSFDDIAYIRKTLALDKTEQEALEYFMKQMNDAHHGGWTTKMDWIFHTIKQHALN
# Sequence (P27986 whole entry partner): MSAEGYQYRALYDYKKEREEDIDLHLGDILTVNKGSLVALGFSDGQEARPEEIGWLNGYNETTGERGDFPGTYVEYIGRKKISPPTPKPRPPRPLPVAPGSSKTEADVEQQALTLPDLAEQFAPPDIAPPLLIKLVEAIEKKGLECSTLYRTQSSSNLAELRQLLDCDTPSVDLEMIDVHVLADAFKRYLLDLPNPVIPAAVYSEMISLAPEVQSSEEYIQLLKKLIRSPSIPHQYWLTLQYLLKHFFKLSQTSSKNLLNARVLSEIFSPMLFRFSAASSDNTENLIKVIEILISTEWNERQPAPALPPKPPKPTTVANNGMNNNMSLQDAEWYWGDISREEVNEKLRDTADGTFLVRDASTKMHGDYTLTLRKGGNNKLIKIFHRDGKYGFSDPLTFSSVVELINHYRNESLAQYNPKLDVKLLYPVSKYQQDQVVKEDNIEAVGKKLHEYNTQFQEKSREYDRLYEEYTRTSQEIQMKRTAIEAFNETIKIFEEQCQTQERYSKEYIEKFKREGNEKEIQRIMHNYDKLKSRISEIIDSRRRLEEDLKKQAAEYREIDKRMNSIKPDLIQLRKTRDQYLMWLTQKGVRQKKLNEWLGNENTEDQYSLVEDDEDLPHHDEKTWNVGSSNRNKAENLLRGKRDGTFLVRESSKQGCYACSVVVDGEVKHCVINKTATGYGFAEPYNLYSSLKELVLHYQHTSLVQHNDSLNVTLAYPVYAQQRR
# EXPERIMENT_SUMMARY: PI3Kα enzyme assay (ADP-Glo)
# Assay type: biochemical
# MEASUREMENT_PARAMETERS: read-out: PI3Kα enzyme inhibitory activity
pIC50: −log10 of the molar value.
Can you tell me pIC50 for the items I'm about to list?

# input molecule: CC(C)c1cnnc(Nc2ccc3ncc(-c4cnn(CCOC5CN(Cc6ccccc6)C5)c4)cc3n2)c1 [Example 0743] ; wanted: its pIC50 > 6.00

# input molecule: CCn1cc(-c2cnc3ccc(Nc4cc(C(C)C)cnn4)nc3c2)cn1 [Example 0440] ; wanted: its pIC50 > 6.00

# input molecule: CC(C)c1cnnc(Nc2ccc3ncc(-c4cn(C)nc4Cl)cc3n2)c1 [Example 0886] ; wanted: its pIC50 > 6.00

# input molecule: c1nc2ccc(Nc3nnc(C4CCCC4)s3)nc2cc1-c1cnn(CCCN2CCCC2)c1 [Example 0320] ; wanted: its pIC50 > 6.00

# input molecule: Cc1nn(C)nc1-c1cnc2ccc(Nc3cc(C(C)C)cnn3)nc2c1 [Example 0720] ; wanted: its pIC50 > 6.00

// input: 5 molecules below; output: pIC50 for each
1. Cc1nc(C)c(-c2cnc3ccc(Nc4cc(C(C)C)cnn4)nc3c2)s1 [Example 0574]
2. COc1ccccc1Nc1cnc2ccc(Nc3nnc(C4CCCC4)s3)nc2c1 [Example 0219]
3. Cn1cc(-c2cnc3ccc(Nc4ccc(NS(C)(=O)=O)nn4)nc3c2)cn1 [Example 0409]
4. CC(C)c1cnnc(Nc2ccc3ncc(N4CCN(C)CC4)cc3n2)c1 [Example 0842]
5. COC1(C)CN(c2cnc3ccc(Nc4cc(C(C)C)cnn4)nc3c2)C1 [Example 0859]

5.00 to 6.00
4.30 to 5.00
> 6.00
5.00 to 6.00
5.00 to 6.00
